- Method Description: Lipophilicity, log D at pH 7.4
- Type: physicochemical
- Protocol Conditions: buffer
Measure: logD
API doc: respond with a numeric literal and nothing else, no unit.

# input Look up logD: CC(C)COc1ccc(Cl)cc1-c1ccccc1-c1cccc(C(=O)[O-])n1.[Na+]
# output 1.9

---

- Experimental System: Prostaglandin E2 receptor EP1 subtype (Rattus norvegicus, UniProt P70597)
- Sequence (P70597 whole entry): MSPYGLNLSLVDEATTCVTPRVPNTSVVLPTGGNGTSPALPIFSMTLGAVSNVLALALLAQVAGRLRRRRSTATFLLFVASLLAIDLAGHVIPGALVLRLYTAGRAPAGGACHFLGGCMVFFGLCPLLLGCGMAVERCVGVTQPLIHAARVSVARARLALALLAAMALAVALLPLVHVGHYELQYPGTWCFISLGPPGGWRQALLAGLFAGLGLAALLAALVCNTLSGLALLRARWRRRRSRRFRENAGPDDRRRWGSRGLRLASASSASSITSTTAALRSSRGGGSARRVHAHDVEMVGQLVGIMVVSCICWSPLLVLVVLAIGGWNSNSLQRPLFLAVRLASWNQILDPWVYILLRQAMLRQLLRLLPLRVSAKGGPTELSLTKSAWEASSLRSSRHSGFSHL
Measure: IC50 (nM)
Response body: numeric value in nM, unit text excluded.

# input Observed IC50 on Prostaglandin E2 receptor EP1 subtype (Rattus norvegicus, UniProt P70597) for CC(C)COc1ccc(Cl)cc1-c1ccccc1-c1cccc(C(=O)[O-])n1.[Na+] , please.
# output 12.6

---

- Experimental System: UniProtKB P43088
- Sequence (P43088 whole entry): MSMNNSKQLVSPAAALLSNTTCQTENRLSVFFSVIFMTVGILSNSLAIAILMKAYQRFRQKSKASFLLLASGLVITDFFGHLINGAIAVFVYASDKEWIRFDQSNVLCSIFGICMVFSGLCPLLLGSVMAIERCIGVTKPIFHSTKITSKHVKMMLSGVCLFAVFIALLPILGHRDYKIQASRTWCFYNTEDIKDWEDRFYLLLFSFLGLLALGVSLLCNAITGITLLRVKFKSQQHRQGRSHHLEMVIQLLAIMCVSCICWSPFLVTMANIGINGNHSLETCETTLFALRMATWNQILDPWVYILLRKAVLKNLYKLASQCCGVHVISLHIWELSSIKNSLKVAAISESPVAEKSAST
- Method Description: Activity at PGF2alpha receptor by FLIPR method
Measure: IC50

# input Look up IC50: CC(C)COc1ccc(Cl)cc1-c1ccccc1-c1cccc(C(=O)[O-])n1.[Na+]
# output > 10 µM

---

- Experimental System: Peroxisome proliferator-activated receptor alpha (Homo sapiens)
- Sequence (Q07869 whole entry): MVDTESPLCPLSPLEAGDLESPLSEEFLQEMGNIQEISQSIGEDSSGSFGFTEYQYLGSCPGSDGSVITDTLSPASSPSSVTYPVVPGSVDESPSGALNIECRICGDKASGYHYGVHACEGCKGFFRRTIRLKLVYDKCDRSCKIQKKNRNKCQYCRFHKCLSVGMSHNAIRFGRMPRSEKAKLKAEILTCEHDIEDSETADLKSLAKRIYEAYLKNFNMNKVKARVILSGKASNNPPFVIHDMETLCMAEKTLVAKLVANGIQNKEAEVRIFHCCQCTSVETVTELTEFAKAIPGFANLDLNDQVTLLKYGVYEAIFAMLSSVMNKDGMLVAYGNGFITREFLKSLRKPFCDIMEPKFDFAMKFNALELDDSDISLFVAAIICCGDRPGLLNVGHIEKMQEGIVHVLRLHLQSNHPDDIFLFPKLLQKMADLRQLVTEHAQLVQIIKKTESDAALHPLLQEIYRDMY
- Method Description: Activity at PPARalpha
pEC50: −log10 of the molar value.
Measure: pEC50

# input Look up pEC50: CC(C)COc1ccc(Cl)cc1-c1ccccc1-c1cccc(C(=O)[O-])n1.[Na+]
# output < 5.00

---

- Method Description: Drug level in blood of sub-chronic rat joint pain efficacy model treatment group at 5 mg/kg bid measured on day 5 after 1 hr post dose
- Assay type: ADME, organism-based
- Set-up: dose 5 mg/kg
- Protocol Conditions: read-out: Drug uptake
Measure: concentration at 1 h (nM)
Response body: numeric value in nM, unit text excluded.

# input Look up concentration at 1 h: CC(C)COc1ccc(Cl)cc1-c1ccccc1-c1cccc(C(=O)[O-])n1.[Na+]
# output 1630

---

- Experimental System: Cytochrome P450 2C9 (Homo sapiens)
- Sequence (P11712 whole entry): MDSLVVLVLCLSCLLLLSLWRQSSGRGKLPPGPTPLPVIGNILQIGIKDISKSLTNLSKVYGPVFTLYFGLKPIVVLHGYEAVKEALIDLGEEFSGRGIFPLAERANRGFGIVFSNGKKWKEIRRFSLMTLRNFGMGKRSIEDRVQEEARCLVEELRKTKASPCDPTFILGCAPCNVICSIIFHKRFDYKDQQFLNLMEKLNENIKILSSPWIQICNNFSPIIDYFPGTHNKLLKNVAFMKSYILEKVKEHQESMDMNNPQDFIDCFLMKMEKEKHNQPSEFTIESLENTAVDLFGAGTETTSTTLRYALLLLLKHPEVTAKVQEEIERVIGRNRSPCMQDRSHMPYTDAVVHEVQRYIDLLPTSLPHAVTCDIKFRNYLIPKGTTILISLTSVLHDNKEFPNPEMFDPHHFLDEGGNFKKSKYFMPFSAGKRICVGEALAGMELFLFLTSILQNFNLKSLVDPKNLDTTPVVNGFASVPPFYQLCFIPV
Measure: IC50 (µM)
Response body: numeric value in µM, unit text excluded.

# input Look up IC50: O=C(O)c1cccc(C2=C(c3cc(Cl)ccc3OCc3ccc(F)cc3F)CCC2)n1
# output 25

---

- Method Description: Drug level in mouse brain at 3 mg/kg, po after 0.5 hrs
- Assay type: ADME, organism-based
- Design: dose 3 mg/kg, route oral
- Protocol Conditions: read-out: Drug uptake
Measure: concentration at 0.5 h

# input Look up concentration at 0.5 h: CC(C)COc1ccc(Cl)cc1-c1ccccc1-c1cccc(C(=O)[O-])n1.[Na+]
# output 277 nM

---

- Experimental System: Prostaglandin E2 receptor EP3 subtype (Homo sapiens)
- Sequence (P43115 whole entry): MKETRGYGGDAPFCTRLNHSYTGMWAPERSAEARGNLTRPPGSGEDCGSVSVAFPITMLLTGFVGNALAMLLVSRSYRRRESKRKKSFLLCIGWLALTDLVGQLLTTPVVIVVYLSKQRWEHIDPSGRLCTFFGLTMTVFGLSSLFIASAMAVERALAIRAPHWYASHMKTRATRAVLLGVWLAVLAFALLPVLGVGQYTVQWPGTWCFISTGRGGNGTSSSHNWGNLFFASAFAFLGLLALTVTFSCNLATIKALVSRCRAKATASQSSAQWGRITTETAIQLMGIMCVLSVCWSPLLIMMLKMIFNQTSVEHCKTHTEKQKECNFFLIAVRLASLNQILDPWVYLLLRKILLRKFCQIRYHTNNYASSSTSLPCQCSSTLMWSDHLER
- Method Description: Activity at EP3 receptor by FLIPR method
Measure: pKi
As a rule, pKi stands for the negative log10 of the concentration, concentration in M.

# input Look up pKi: CC(C)COc1ccc(Cl)cc1-c1ccccc1-c1cccc(C(=O)[O-])n1.[Na+]
# output 5.70

---

- Method Description: Drug level in blood of sub-chronic rat joint pain efficacy model satellite animal group at 5 mg/kg bid measured on day 1 after 1 hr post dose
- Type: ADME, organism-based
- Set-up: dose 5 mg/kg
- Protocol Conditions: read-out: Drug uptake
Measure: concentration at 1 h (µM)
Response body: numeric value in µM, unit text excluded.

# input Look up concentration at 1 h: CC(C)COc1ccc(Cl)cc1-c1ccccc1-c1cccc(C(=O)[O-])n1.[Na+]
# output 5.27
